# Tested on: NCI-H460
# method description: In vitro cytotoxicity against H460 cell line
# Format: functional, Homo sapiens
measured property: Cytotoxicity (nM)
Report only the number, with the unit nM understood.

Past entries and their recorded results:
CCCC1=C(N2CC2)C(=O)C(CCC)=C(N2CC2)C1=O 20.1
CCC1=C(N2CC2)C(=O)C(C)=C(N2CC2)C1=O 1.6
CCC1=C(N2CC2)C(=O)C(CC)=C(N2CC2)C1=O 4.1
CC1=C(N2CC2)C(=O)C(C)=C(N2CC2)C1=O 0.77
CC(C)C1=C(N2CC2)C(=O)C(C(C)C)=C(N2CC2)C1=O 170
CC1=C(N2CC2)C(=O)C(C(C)C)=C(N2CC2)C1=O 3.6
O=C1C=C(N2CC2)C(=O)C=C1N1CC1 4.6

Please examine the following record next.
(Q) Which Cytotoxicity is listed for CCCC1=C(N2CC2)C(=O)C(C)=C(N2CC2)C1=O ?
(A) 3.3

// data source = ChEMBL document CHEMBL1132246
